This listing pairs binders with measured pKd.
Biological target: T1, Acro SARS-CoV-2 (COVID-19) S1 protein (SARS-CoV-2, UniProt P0DTC2 16-685)
T1 construct: also called SARS-CoV-2 S1
Assay: SPR
Scale for pKd: -log10 of concentration given in mol/L; no unit attached.

BINDER	pKd
variant 6-82 (Fc fusion) VHH: EVQLVESGGGLVQPGGSLRLSCAASGSSLDAYGMGWFRQAPGKEREFVAAISWGGGSIYYADSVKGRFTISADNSKNTAYLQMNSLKPEDTAVYYCARLSQGMVALDYWGQGTLVTVSS	8.15
variant 6-6 (Fc fusion) VHH: EVQLVESGGGLVQPGGSLRLSCAASGTTLDYYAMGWFRQAPGKERELVAAISWSGGSTAYADSVKGRFTISADNSKNTAYLQMNSLKPEDTAVYYCAREDYYDSSGYSWGQGTLVTVSS	8.19
variant 6-38 (Fc fusion) VHH: EVQLVESGGGLVQPGGSLRLSCAASGNTFSGGFMGWFRQAPGKEREFVAVISSLSSKSYADSVKGRFTISADNSKNTAYLQMNSLKPEDTAVYYCAKVDSGYDYWGQGTLVTVSS	7.58

# next binder below
Which pKd value belongs to variant 5-56 (Fc fusion) VHH: EVQLVESGGGLVQPGGSLRLSCAASGRTFSSNMGWFRQAPGKEREFVARIFGGDRTLYADSVKGRFTISADNSKNTAYLQMNSLKPEDTAVYYCADINGDWGQGTLVTVSS ?
7.27
